A collection of molecules and their measured relative viability
- Tested on: NCI-H1437
- ASSAY_PROCEDURE: relative viability (nuclei count vs DMSO), 5 days (fraction); higher = more cells survive
- TEST_PARAMETERS: first compound 6.325 µM
READOUT: relative viability

1. COCC1(CO)C(=O)C2CCN1CC2 (stereo not given) [PRIMA-1MET] + CC(=O)Nc1cccc(-n2c(=O)n(C3CC3)c(=O)c3c(Nc4ccc(I)cc4F)n(C)c(=O)c(C)c32)c1 [Trametinib] (partner 0.02 µM) = 0.546
2. COCC1(CO)C(=O)C2CCN1CC2 (stereo not given) [PRIMA-1MET] + O=C(CCCCCCC(=O)Nc1ccccc1)NO [Vorinostat] (partner 1 µM) = 0.939
3. COCC1(CO)C(=O)C2CCN1CC2 (stereo not given) [PRIMA-1MET] + C[C@@H](Oc1cc(-c2cnn(C3CCNCC3)c2)cnc1N)c1c(Cl)ccc(F)c1Cl [Crizotinib] (partner 1 µM) = 0.991
4. COCC1(CO)C(=O)C2CCN1CC2 (stereo not given) [PRIMA-1MET] + CC(C)C[C@H](NC(=O)[C@H](Cc1ccccc1)NC(=O)c1cnccn1)B(O)O [Bortezomib] (partner 0.002 µM) = 0.594
5. COCC1(CO)C(=O)C2CCN1CC2 (stereo not given) [PRIMA-1MET] + CS(=O)(=O)N1CCN(Cc2cc3nc(-c4cccc5[nH]ncc45)nc(N4CCOCC4)c3s2)CC1 [Pictilisib] (partner 1 µM) = 0.466
